Source: PubChem BioAssay AID624467

target: Trace amine-associated receptor 1 (Homo sapiens); test: activators of TAAR1 calcium mobilization – Fluo-8 calcium fluorescence, CHO RD-HGA16 cells, primary screen (AID 624467); details: CHO RD-HGA16 TAAR1, Fluo-8 calcium fluorescence; at 3 µM; active compounds read high; vehicle wells 0%, saturating PEA agonist 100%
Out of some 360,000 compounds screened, about 3,600 (1%) were called active. What follows is part of a selection rich in actives, with near analogues and random picks from the rest.
assayMetric: activation (%)
Number in %, nothing else.

Enquiry: What is its activation for Trace amine-associated receptor 1 (Homo sapiens)? Entry: "O=C(Nc1ccc(Cl)cc1)N1CCc2[nH]c3ccccc3c2C1"
Return: 50.1

Enquiry: State its activation on Trace amine-associated receptor 1 (Homo sapiens): "C[C@@H]1CN([C@@H](C)CO)S(=O)(=O)c2ccc(C#Cc3cccc(F)c3)cc2O[C@H]1CN(C)S(=O)(=O)c1cn(C)cn1"
Return: 20.9

Enquiry: What value of activation on Trace amine-associated receptor 1 (Homo sapiens) does "COc1ccccc1Cc1c(-c2ccc(Cl)cc2)nc2ccc(Cl)cn12" have?
Return: -1.69

Enquiry: Requested read-out activation, target or system Trace amine-associated receptor 1 (Homo sapiens), entry COC(=O)C1=C(C)N(Cc2ccccc2C(F)(F)F)C(=NCc2ccc(OC)cc2)NC1c1cccc(C(F)(F)F)c1 (stereo not given)
Return: 9.5

Enquiry: Trace amine-associated receptor 1 (Homo sapiens) / activation / Cc1ccc2c(c1)C(O)(CC(=O)c1cccnc1)C(=O)N2 (stereo not given) : value?
Return: 0.5

* * *

molecular target: Trace amine-associated receptor 1 (Homo sapiens) (UniProt Q96RJ0); test: activators of TAAR1 calcium mobilization – Fluo-8 calcium fluorescence, CHO RD-HGA16 cells, primary screen (AID 624467); conditions: CHO RD-HGA16 TAAR1, Fluo-8 calcium fluorescence; at 3 µM; active compounds read high; vehicle wells 0%, saturating PEA agonist 100%
Sequence (Q96RJ0 whole entry, looked up): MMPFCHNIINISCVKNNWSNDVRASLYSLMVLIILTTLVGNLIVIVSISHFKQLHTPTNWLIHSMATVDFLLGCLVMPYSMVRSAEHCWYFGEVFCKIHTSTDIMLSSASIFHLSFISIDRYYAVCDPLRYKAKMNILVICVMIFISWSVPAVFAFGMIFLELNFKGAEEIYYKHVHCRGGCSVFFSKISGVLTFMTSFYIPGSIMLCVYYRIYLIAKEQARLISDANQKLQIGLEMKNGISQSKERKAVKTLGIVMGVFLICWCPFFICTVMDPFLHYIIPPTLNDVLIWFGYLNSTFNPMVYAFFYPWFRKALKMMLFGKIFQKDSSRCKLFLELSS
The campaign covered roughly 360,000 compounds. About 3,600 (1%) were called active. The sample as a whole holds a higher share of actives than the screen did.
assayMetric: activation (%)
Express your answer in %, writing the number without its unit.

Solved entries (count: 3):
molecule	activation / %
CC1(C)CC(=O)C(C=NCCC2=CCCCC2)=C(O)C1	20.1
OC[C@H]1O[C@@H](c2nc(-c3nc(-c4ccc(F)cc4)no3)cs2)[C@H](O)[C@@H](O)[C@H]1O	0.88
C/C(COc1ccccc1)=N\NC(=O)c1nnn(-c2nonc2N)c1-c1ccc(C)cc1	6.16

// next entry
Enquiry: Record request: activation value, item "Cc1ccc(Cl)c(OCC(=O)N2CCc3ccccc3C2)c1"
Return: 0.5

* * *

target: Trace amine-associated receptor 1 (Homo sapiens); test: activators of TAAR1 calcium mobilization – Fluo-8 calcium fluorescence, CHO RD-HGA16 cells, primary screen (AID 624467); conditions: CHO RD-HGA16 TAAR1, Fluo-8 calcium fluorescence; at 3 µM; vehicle wells 0%, saturating PEA agonist 100%
Hit rate of the full screen: of about 360,000 compounds, about 3,600 (1%) were called active.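 The calls were made as follows: active = activation above the mean activation of all test compounds in the run plus 3 SD (cut at about 38% in these data); inactive = the rest.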 Many of the other results were omitted from the sample, so actives are more common in it than they were.
Return exactly one item of active, inactive

The following compounds have reported results that may help.
compound	answerLabel
CCn1nccc1C(=O)Nc1ccc(S(=O)(=O)NC23CC4CC(CC(C4)C2)C3)cc1	active
O=C(Nc1ccc(S(=O)(=O)Nc2ncccn2)cc1)C12CC3CC(CC(C3)C1)C2	inactive

Enquiry: Would you mind telling me which call this test gave "CC1CCN(C(=O)CCc2nnc3ccc(NCc4ccco4)nn23)CC1" ?
Return: inactive

Enquiry: How did this test come out for "COC(=O)[C@H](CCSC)NC(=O)Nc1ccc(OC)cc1" ?
Return: inactive

Enquiry: Entry CCn1cc(CN2CCCC(CNS(=O)(=O)Cc3ccccc3)C2)cn1 (stereo not given) : call = ?
Return: inactive

Enquiry: Could you kindly confirm the outcome this assay logged for COc1ccc(S(=O)(=O)N2CCN(C(C)C(=O)Nc3ccc(C(C)C)cc3)CC2)cc1 (stereo not given) ?
Return: inactive

Enquiry: Which outcome was entered for the compound NC(Cc1ccc(F)cc1)c1csc(Nc2nncc3ccccc23)n1 (stereo not given) in this test?
Return: inactive

Enquiry: Could you kindly confirm the outcome this assay logged for CCCNC(=O)C1(C)CCN(Cc2ccc(Cl)c(Cl)c2)C1 (stereo not given) ?
Return: inactive

Enquiry: Which result was noted for this compound in the test: COc1ccc(CC(N)c2csc(NC(=O)Cc3ccccc3)n2)cc1 (stereo not given)
Return: active

Enquiry: For this compound, state the assay outcome: "Cc1ccccc1NC(=O)Cc1nc(COC(=O)c2ccc(C(F)(F)F)cc2)cs1"
Return: inactive

* * *

The entries below are paired with their reported activation.
target: Trace amine-associated receptor 1 (Homo sapiens) (UniProt Q96RJ0); experiment: activators of TAAR1 calcium mobilization – Fluo-8 calcium fluorescence, CHO RD-HGA16 cells, primary screen (AID 624467); conditions: CHO RD-HGA16 TAAR1, Fluo-8 calcium fluorescence; at 3 µM; active compounds read high; vehicle wells 0%, saturating PEA agonist 100%
Hit rate of the full screen: of about 360,000 compounds, about 3,600 (1%) were called active. Only a selection was taken, and actives are over-represented in it overall.
Your answer is read as %, so omit the unit and give the number.

Answered cases to consult:
compound	targetDesc	assayMetric	numericValue
Cc1ccc2nc(CN(C)C(=O)[C@@H](Cc3ccccc3)NC(=O)[C@H]3O[C@@H](n4ccc(=O)[nH]c4=O)[C@H](O)[C@@H]3O)[nH]c2c1	Trace amine-associated receptor 1 (Homo sapiens) (UniProt Q96RJ0)	activation	1.15
N/C(=N\c1nc2ccccc2o1)NC(=O)C(Cc1ccccc1)N1C(=O)c2ccccc2C1=O (stereo not drawn)	Trace amine-associated receptor 1 (Homo sapiens) (UniProt Q96RJ0)	activation	-1.96
Cc1cc(Br)cn2c(Cc3ccccc3C(F)(F)F)c(-c3ccc(C#N)cc3)nc12	Trace amine-associated receptor 1 (Homo sapiens) (UniProt Q96RJ0)	activation	0.31
CCCN1C(=O)c2[nH]nc(-c3ccccc3)c2C1c1ccccc1 (stereo not drawn)	Trace amine-associated receptor 1 (Homo sapiens) (UniProt Q96RJ0)	activation	2.41
O=C(COc1ccc(F)cc1Br)NCC1COc2ccccc2O1 (stereo not drawn)	Trace amine-associated receptor 1 (Homo sapiens) (UniProt Q96RJ0)	activation	-1.29
Cc1ccc2nc(C)c3c(c2c1)N(c1ccccc1)CC3	Trace amine-associated receptor 1 (Homo sapiens) (UniProt Q96RJ0)	activation	1.22

Enquiry: Give its activation value. Item: CC1CCCCC1NC(=O)CSc1nnc(N)s1 (stereo not drawn)
Return: 9.77

* * *

molecular target: Trace amine-associated receptor 1 (Homo sapiens); experiment: activators of TAAR1 calcium mobilization – Fluo-8 calcium fluorescence, CHO RD-HGA16 cells, primary screen (AID 624467); details: CHO RD-HGA16 TAAR1, Fluo-8 calcium fluorescence; at 3 µM; active compounds read high; vehicle wells 0%, saturating PEA agonist 100%
The whole screen tested about 360,000 compounds, of which about 3,600 (1%) were called active. This excerpt belongs to a sample that is enriched for actives.
assayMetric: activation (%)
Could you give me the number in %? Just the number is fine.

Take a look at these entries with their results.
compound	assayMetric	numericValue
Cc1ccc2c(c1)N(S(=O)(=O)c1cc(-c3cc(C)no3)ccc1C)CCO2	activation	0.2
COc1ccc(C(=O)NC(=S)NNC(=O)CCc2ccccc2)cc1	activation	108
Cc1ccc(NC(=O)CN2C(=O)NC(C)(c3ccc(Cl)cc3)C2=O)c(Br)c1 (stereo unspecified)	activation	42.4
COc1ccc(C(=O)NNC(=S)NC(=O)c2ccccc2)cc1	activation	130
N#CC1(NC(=O)COC(=O)CCN=C2NS(=O)(=O)c3ccccc32)CCCCC1	activation	1.14
CC(C)[C@@H](C)/C=C/[C@@H](C)[C@H]1CC[C@@H]2[C@]1(C)CCC1[C@]23C=C[C@]2(C[C@@H](O)CC[C@]12C)N(c1ccc([N+](=O)[O-])cn1)O3 (stereo partly specified)	activation	-0.81

Enquiry: Query (compound): "O=C(CCCN=C1NS(=O)(=O)c2ccccc21)OCC(=O)c1ccc(F)c(F)c1" ; field requested: activation
Return: 86.8

Enquiry: Name the recorded activation for "CN(C)S(=O)(=O)c1cc(C(=O)Nc2ccn(C)n2)c(Cl)cc1Cl" .
Return: 2.93

Enquiry: Give its activation value. Item: "Cc1cc2oc(=O)cc(-c3ccccc3)c2c(C)c1-c1ccc(OC(F)(F)F)cc1"
Return: 2.46

Enquiry: Data request, read-out activation, for "COc1ccc(/C(N)=N/OC(=O)CCCc2ccccc2)cc1"
Return: 5.81

Enquiry: Could you tell me which activation is on file for "CCOC(=O)Cc1csc(NC(NC(=O)OCC)(C(F)(F)F)C(F)(F)F)n1" ?
Return: 11.4

Enquiry: So what's the measured activation for this one? "Cc1ccc(NC(=O)Nc2cc(-c3ccccc3)nn2C)cc1Cl"
Return: 11.2

Enquiry: Report activation for COc1ccc(C(=O)CN2C(=O)NC(C)(c3ccc(C)cc3)C2=O)cc1OC (stereo unspecified) please.
Return: 59.9

Enquiry: Any idea what activation was measured for CC1CCC2(CC1)NC(=O)N(CC(=O)c1ccc3c(c1)OCO3)C2=O (stereo unspecified) ?
Return: 1.46

Enquiry: Give the measured activation of "C[C@H]1CN([C@@H](C)CO)S(=O)(=O)c2ccc(Br)cc2O[C@H]1CN(C)C(=O)c1cnccn1" .
Return: 1.33

Enquiry: Endpoint output: activation of "COC(=O)Cc1csc(Nc2c(C)n(C)n(-c3ccccc3)c2=O)n1" . Value?
Return: 7.82

Enquiry: Look up activation: "Cn1nnc(NC(=S)NC(=O)c2ccccc2)n1"
Return: 0.43
